Cited source for all entries: PubChem BioAssay (NCI)

- Test system: TK-10 renal
- EXPERIMENT_DESCRIPTION: NCI-60 one-dose screen, 48 h (100 = growth as untreated, 0 = no growth, -100 = all killed)
- COND: 10 µM unless noted
This is part of a sample that, as a whole, favours compounds with a hit. Of some 83,000 tested, about 20% had one in any assay. Activity calls are given as the source filed them. Rule for the calls: active = growth percent below 10; inactive = the rest.
MEASURE: growth

Below are worked cases with known answers.
O=S(=O)(NCCNc1cc(-c2cn(-c3ccccc3)nc2-c2cccc(O)c2)ccn1)c1ccc(F)cc1 | 46.2% (inactive)
Nc1c2c(nc3ccc(Cl)cc13)CC(c1ccccc1)CC2=O (stereo not drawn) | 79.6% (inactive)
COC(=O)[C@@H]1[C@H]2C[C@H]3c4[nH]c5cc(OC)ccc5c4CCN3C[C@@H]2C[C@H](OC(=O)/C=C/c2ccnc(OC)c2)[C@H]1OC | 87.3% (inactive)

QUERY: GET /values?readout=growth&item= c1ccc2[nH]c(-c3cc(-c4ccc5c(c4)OCO5)n[nH]3)nc2c1
RESULT: 86% (inactive)

QUERY: GET /values?readout=growth&item= CCN(CC)CCCCCNc1cc(OC(=O)c2ccccc2)cc2cccnc12
RESULT: 145% (inactive)

QUERY: GET /values?readout=growth&item= Cn1cnc2c1c(=O)n(CCC(=O)Nc1ccc(F)cc1)c(=O)n2C
RESULT: 92.7% (inactive)

QUERY: GET /values?readout=growth&item= CC(C)=CCC[C@](C)(O)[C@H]1CC[C@]2(C)[C@@H]1CC[C@@H]1[C@@]3(C)C/C(=C/c4cccc([N+](=O)[O-])c4)C(=O)C(C)(C)[C@@H]3CC[C@]12C
RESULT: 128% (inactive)

QUERY: GET /values?readout=growth&item= COC(=O)[C@]12CC[C@@H](C)[C@H](C)[C@@H]1C1=CC[C@@H]3[C@@]4(C)C=C(O)C(=O)C(C)=C4CC[C@@]3(C)[C@]1(C)CC2
RESULT: 14.6% (inactive)

----------
- System: OVCAR-3 ovarian
- EXPERIMENT_DESCRIPTION: NCI-60 one-dose screen, 48 h
- COND: 10 µM unless noted
The panel holds about 83,000 compounds, 20% with a hit somewhere; the sample as a whole holds those more often. Activity calls are given as the source filed them. The calls were made as follows: active = growth percent below 10; inactive = the rest.
# valid calls are active, inactive; nothing else

COc1cccc(-c2nn(-c3ccccc3)cc2-c2ccnc(NCCCNS(=O)(=O)c3ccc(C(F)(F)F)cc3)c2)c1 | inactive
O=C1C=C(C(O)c2ccc(O)cc2)C(=O)c2ccccc21 (stereo unspecified) | inactive
Cc1cc2nc3c4cc(N)ccc4n(CCN(C)C)c3nc2cc1C | inactive

QUERY: State the result this test recorded for O=C1c2cccc3cccc(c23)C(=O)N1CC#Cc1ccc2c3c(cccc13)C(=O)N(CCN1CCNCC1)C2=O .
RESULT: inactive

QUERY: State the result this test recorded for CCSc1sc(-c2ccc(C)cc2)nc1[P+](c1ccccc1)(c1ccccc1)c1ccccc1 .
RESULT: active

QUERY: State the result this test recorded for C(=C\c1c[nH]c2ccccc12)/c1ccc2ccccc2n1 .
RESULT: inactive

QUERY: State the result this test recorded for COc1cnc2c(c1)C(=O)c1c-2n(CCCNC2=NCCS2)c(=O)c2cc([N+](=O)[O-])ccc12 .
RESULT: active

QUERY: State the result this test recorded for CCc1ccccc1NC(=O)c1sc2nc3c(cc2c1N)CCCC3 .
RESULT: inactive

QUERY: State the result this test recorded for COc1cc2c3c(c4c5ccccc5[nH]c4c2c(OC)c1OC)C(=O)N(O)C3=O .
RESULT: inactive

QUERY: State the result this test recorded for COc1cnc2c(c1)C(=O)c1c-2n(CCCN2CCN(CCO)CC2)c(=O)c2cc([N+](=O)[O-])ccc12 .
RESULT: inactive

QUERY: State the result this test recorded for COc1ccc2c(c1)c(-c1nc(-c3cn(C)c4ncccc34)cs1)cn2CCCN1CCCCC1 .
RESULT: active

QUERY: State the result this test recorded for Oc1ccc(Nc2ccccc2)cc1 .
RESULT: inactive

QUERY: State the result this test recorded for Cc1ccc(-c2ccc(Nc3ccccc3)nn2)cc1S(N)(=O)=O .
RESULT: inactive

QUERY: State the result this test recorded for Cn1c2c(c3ccc(Cl)cc31)-n1cccc1C2=O .
RESULT: inactive

QUERY: State the result this test recorded for C[C@]12CC[C@@H]3c4ccc(O)cc4CC[C@H]3[C@@H]1C[C@H](O)[C@@H]2O .
RESULT: inactive

QUERY: State the result this test recorded for Oc1ccc(CCC2CCCC(CCc3ccc(OCCF)cc3)N2)cc1 (stereo unspecified) .
RESULT: inactive

QUERY: State the result this test recorded for Cn1cc(-c2nc(-c3cn(C)c4ncccc34)cs2)c2cc(F)ccc21 .
RESULT: active

QUERY: State the result this test recorded for Cn1cc(-c2csc(-c3cn(CCNC(=O)OC(C)(C)C)c4ccccc34)n2)c2cccnc21 .
RESULT: inactive

QUERY: State the result this test recorded for Cc1cc(N2CCCCC2)nc(N(CCNc2ccnc3cc(Cl)ccc23)Cc2ccco2)n1 .
RESULT: active

QUERY: State the result this test recorded for NC1=NN(c2ccccc2)C(=O)/C1=C/c1ccc(Cl)cc1 .
RESULT: inactive

QUERY: State the result this test recorded for NCCn1cc(-c2nc(-c3c[nH]c4ncccc34)cs2)c2cc(Br)ccc21 .
RESULT: inactive

----------
- System: HS 578T breast
- EXPERIMENT_DESCRIPTION: NCI-60 one-dose screen, 48 h (100 = growth as untreated, 0 = no growth, -100 = all killed)
- COND: 10 µM unless noted
This is part of a sample that, as a whole, favours compounds with a hit. Of some 83,000 tested, about 20% had one in any assay.
MEASURE: growth (%)
A number alone suffices; assume %.

N#C/C(=C\c1ccc(-c2ccc(F)cc2)o1)c1nc(-c2ccco2)cs1 | 109
COc1cc2c(cc1-c1c(C)noc1C)ncc1nc(C3CCC(F)(F)CC3)n([C@@H](C)COC(F)F)c12 | 8.57
Cn1cc(-c2csc(-c3cn(CCNC(=O)OC(C)(C)C)c4ccccc34)n2)c2cccnc21 | 82.1
COC(=O)[C@]12CC[C@@H](C(C)=O)[C@@H]1[C@H]1CC[C@@H]3[C@@]4(C)C/C(=C/c5cccnc5)C(=O)C(C)(C)[C@@H]4CC[C@@]3(C)[C@]1(C)CC2 | 74.8

Alright, here's another compound for you.
QUERY: Item: C[C@H]1OC(=O)/C=C/[C@@H](O)[C@@H](O)CCCCCCCC[C@@H]1O Test system: HS 578T breast Read-out: growth Value: ?
RESULT: 101

----------
- System: SR leukemia
- EXPERIMENT_DESCRIPTION: NCI-60 one-dose screen, 48 h (100 = growth as untreated, 0 = no growth, -100 = all killed)
- COND: 10 µM unless noted
The panel holds about 83,000 compounds, 20% with a hit somewhere; the sample as a whole holds those more often.
MEASURE: growth (%)
A number alone suffices; assume %.

QUERY: Item: CN1CCN(CC#CCn2c3c(c4ccccc42)C[C@]2(C)[C@H]4CC[C@@H]5[C@H]6[C@H]7OC(=O)[C@@]6(CCC7(C)C)CC[C@@]5(C)[C@]4(C)CC[C@H]2C3(C)C)CC1 Test system: SR leukemia Read-out: growth Value: ?
RESULT: 0.535

----------
- Test system: SF-268 CNS
- EXPERIMENT_DESCRIPTION: NCI-60 one-dose screen, 48 h
- COND: 10 µM unless noted
About 83,000 compounds went through this panel and 20% of them were active in at least one assay; those are over-represented in the sample as a whole. Calls of active or inactive are those of the source. The calls were made as follows: active = growth percent below 10; inactive = the rest.
# valid calls are true = active, false = inactive; nothing else

Solved cases (5 shown):
COc1ccc(O)c(-c2cc(-c3ccc(Cl)cc3)c(C#N)c(=O)[nH]2)c1 | false
COc1cccc(-c2nn(-c3ccccc3)cc2-c2ccnc(NCCCN)c2)c1 | false
Cc1cc(C)c(NC(=O)c2sc3nc4c(cc3c2N)CCCC4)c(C)c1 | false
O=C1CCC/C=C\C[C@H]2C=C(Cl)C(=O)/C2=C/C[C@H](CCCCC(F)(F)F)OC(=O)CCC/C=C\C[C@H]2C=C(Cl)C(=O)/C2=C/C[C@H](CCCCC(F)(F)F)O1 | true
CCN1CCN(C(=O)[C@]23CCC(C)(C)C[C@H]2C2=CC[C@@H]4[C@@]5(C)CC/C(=N/O)C(C)(C)[C@@H]5CC[C@@]4(C)[C@]2(C)CC3)CC1 | false

QUERY: State the result this test recorded for CCCCC[C@H]1C/C=C2/C(=O)C(Cl)=C[C@@H]2C/C=C\CCCC(=O)O1 .
RESULT: true

QUERY: State the result this test recorded for Nc1c2c(nc3ccc(Cl)cc13)CC(c1ccc(O)cc1)CC2=O (stereo not given) .
RESULT: false

QUERY: State the result this test recorded for COc1cc2[nH]c(C(=O)c3cc(OC)c(OC)c(OC)c3)c(N)c2cc1C#CC1CC1 .
RESULT: false

QUERY: State the result this test recorded for Oc1ccc(CCC2CCCC(CCc3ccc(OCCF)cc3)N2)cc1 (stereo not given) .
RESULT: false

QUERY: State the result this test recorded for N=C(N)N=Nc1ccc(O)cc1 .
RESULT: false
